What follows is literature data on pIC50 for PIK3CA (human) (UniProt P42336).
pIC50: −log10 of the molar value.

>  <Compound>
CC(C)Oc1cc(-c2cccc3nc([C@H](C)NC(=O)c4c(N)nn5cccnc45)n(-c4ccccc4)c(=O)c23)ccn1

>  <Readout Qualifier>
<

>  <pIC50>
5.00

$$$$
>  <Compound>
O=S(=O)(Nc1cc(-c2ccc3nccc(-c4ccc(Cn5cncn5)cc4)c3c2)cnc1Cl)c1ccc(F)cc1F

>  <Readout Qualifier>
=

>  <pIC50>
9.09

$$$$
>  <Compound>
Cc1cc(-c2ccc3nc(N)oc3c2)cn2c(N3CCN(C)CC3)nnc12

>  <Readout Qualifier>
<

>  <pIC50>
5.00

$$$$
>  <Compound>
CNC(=O)C(C)Cn1cnc2ccc(-c3cnc(OC)c(NS(=O)(=O)c4ccc(Cl)cc4C)c3)cc2c1=O (single isomer, unassigned)

>  <Readout Qualifier>
=

>  <pIC50>
8.30

$$$$
>  <Compound>
Cn1cc(/C=C2\Oc3cc(O)cc(O)c3C2=O)c2c(-c3ccccc3)ccnc21

>  <Readout Qualifier>
=

>  <pIC50>
7.02

$$$$

###

What follows is literature data on IC50 for PIK3CA (human).

>  <Smiles Str>
C[C@@H]1COCCN1c1nc(N2CCOCC2)nc2[nH]c(-c3cccc4[nH]ccc34)nc12

>  <Tested System>
PIK3CA (human)

>  <IC50>
6050 nM

$$$$
>  <Smiles Str>
COc1cc(-c2ccc3ncc4ncn(C5CCN(CC(=O)N(C)C)CC5)c4c3n2)cnc1OC

>  <Tested System>
PIK3CA (human)

>  <IC50>
< 100 nM

$$$$
>  <Smiles Str>
CN(C)C1CN(c2cnc3ccc(-c4ccc5oc(N)nc5c4)cc3n2)C1

>  <Tested System>
PIK3CA (human)

>  <IC50>
< 100 nM

$$$$
>  <Smiles Str>
Cn1cc(/C=C2\Oc3ccc(NC(=O)NC4CCCCC4)cc3C2=O)c2c(N3CC4CCC(C3)O4)ccnc21

>  <Tested System>
PIK3CA (human)

>  <IC50>
1470 nM

$$$$
>  <Smiles Str>
CC(C)n1ccc2c(N3CCOCC3)nc(-c3ccc(NC(=O)Nc4ccc(C(=O)O)cc4)cc3)nc21

>  <Tested System>
PIK3CA (human)

>  <IC50>
25.7 nM

$$$$
>  <Smiles Str>
CCC(=O)N1CCN(c2nc3c(N4CCOCC4)nc(-c4cnc(N)nc4)nc3n2CC(F)(F)F)CC1

>  <Tested System>
PIK3CA (human)

>  <IC50>
< 10 nM

$$$$
>  <Smiles Str>
N#CC1(C(=O)Nc2ccc(F)c(-c3cnc4c(N5CCOCC5)nc(-c5cnc(N)nc5)nc4c3)c2)CC1

>  <Tested System>
PIK3CA (human)

>  <IC50>
< 50 nM

$$$$
>  <Smiles Str>
OCc1ccccc1-c1nc2c(N3CCOCC3)nc(N3CCOCC3)nc2[nH]1

>  <Tested System>
PIK3CA (human)

>  <IC50>
5870 nM

$$$$
>  <Smiles Str>
Cc1cccc2cc([C@H](C)NC(=O)c3cnn4ccccc34)n(-c3ccccc3)c(=O)c12

>  <Tested System>
PIK3CA (human)

>  <IC50>
> 10000 nM

$$$$
>  <Smiles Str>
Cn1cc(/C=C2\Oc3cc(O)cc(O)c3C2=O)c2c(-c3ccc(Cl)nc3)ccnc21

>  <Tested System>
PIK3CA (human)

>  <IC50>
8 nM

$$$$
>  <Smiles Str>
N#Cc1cccc(-c2nnc3cnc4ccc(-c5cnc(N)c(C(F)(F)F)c5)cc4n23)c1

>  <Tested System>
PIK3CA (human)

>  <IC50>
< 100 nM

$$$$
>  <Smiles Str>
C[C@H]1CN(C2CN(c3cnc4ccc(-c5ccc6oc(N)nc6c5)nc4n3)C2)CCN1C

>  <Tested System>
PIK3CA (human)

>  <IC50>
< 100 nM

$$$$
>  <Smiles Str>
CN(C)CCNC(=O)Nc1ccc2c(c1)C(=O)/C(=C/c1cn(C)c3nccc(N4CC5CCC(C4)O5)c13)O2

>  <Tested System>
PIK3CA (human)

>  <IC50>
24 nM

$$$$
>  <Smiles Str>
COc1ncc(-c2ccc3ncc4nnc(CN5CCCC5)n4c3c2)cc1NS(C)(=O)=O

>  <Tested System>
PIK3CA (human)

>  <IC50>
< 100 nM

$$$$
>  <Smiles Str>
CCOC(=O)c1ccc(-c2ccnc3ccc(-c4cnc(OC)c(NS(=O)(=O)c5ccc(F)cc5F)c4)cc23)cc1

>  <Tested System>
PIK3CA (human)

>  <IC50>
2.6 nM

$$$$
>  <Smiles Str>
CN(C)C[C@@H]1CCN(C(=O)Nc2nc3c(s2)-c2cc(C(C)(C)C)ncc2OC3)[C@@H]1C(N)=O

>  <Tested System>
PIK3CA (human)

>  <IC50>
3 nM

$$$$
>  <Smiles Str>
Cc1c(-c2ccc3ncc(N4CC(N5CCOCC5)C4)nc3c2)ccc2oc(N)nc12

>  <Tested System>
PIK3CA (human)

>  <IC50>
> 10000 nM

$$$$
>  <Smiles Str>
C[C@H](O)C(=O)Nc1cccc(-c2cnc3c(N4CCOCC4)nc(-c4cnc(N)nc4)nc3c2)c1

>  <Tested System>
PIK3CA (human)

>  <IC50>
< 50 nM

$$$$
>  <Smiles Str>
c1cc2cc(-c3ccc4ncc(N5CCOCC5)nc4c3)cnc2[nH]1

>  <Tested System>
PIK3CA (human)

>  <IC50>
50 nM

$$$$
>  <Smiles Str>
Cc1cc(-c2ccc3nc(N)oc3c2)cn2c(CN3CCN(C)CC3)nnc12

>  <Tested System>
PIK3CA (human)

>  <IC50>
> 10000 nM

$$$$
>  <Smiles Str>
Cc1cn(C2CCN(c3cnc4ccc(-c5ccc6oc(N)nc6c5)cc4n3)CC2)cn1

>  <Tested System>
PIK3CA (human)

>  <IC50>
< 100 nM

$$$$
>  <Smiles Str>
C[C@H](NC(=O)c1nc(-c2cccc(S(=O)(=O)NC(C)(C)C)c2)cnc1N)c1cc2cccc(Cl)c2c(=O)n1-c1ccccc1

>  <Tested System>
PIK3CA (human)

>  <IC50>
1000 to 10000 nM

$$$$
>  <Smiles Str>
Cc1cccc2cc(Cn3nc(-c4ccc5nc(N)sc5c4)c4c(N)ncnc43)n(-c3ccccc3)c(=O)c12

>  <Tested System>
PIK3CA (human)

>  <IC50>
< 100 nM

$$$$
>  <Smiles Str>
Cc1ccnc2nc(Cn3nc(C#CC4CC4)c4c(N)ncnc43)n(-c3ccccc3Cl)c(=O)c12

>  <Tested System>
PIK3CA (human)

>  <IC50>
> 10000 nM

$$$$
>  <Smiles Str>
CONC(=O)c1ccc(-c2ccnc3c2c(/C=C2\Oc4cccc(O)c4C2=O)cn3C)cc1

>  <Tested System>
PIK3CA (human)

>  <IC50>
26 nM

$$$$
>  <Smiles Str>
Cc1ccccc1-n1c(Cn2nc(C#C[C@@H](C)O)c3c(N)ncnc32)cc2cccc(C)c2c1=O

>  <Tested System>
PIK3CA (human)

>  <IC50>
> 10000 nM

$$$$
>  <Smiles Str>
[H]/N=c1\ncc(-c2ccc3c(c2)CN(c2ncnc4c2CC(C)(C)CC4)CCO3)cn1O

>  <Tested System>
PIK3CA (human)

>  <IC50>
≥ 2000 nM

$$$$
>  <Smiles Str>
C=C(C)c1nn(Cc2cc3cccc(C)c3c(=O)n2-c2ccccc2)c2ncnc(N)c12

>  <Tested System>
PIK3CA (human)

>  <IC50>
> 10000 nM

$$$$
>  <Smiles Str>
Nc1nc2nc(-c3ccc4ncc(C(=O)N5CCOCC5)n4c3)ccc2o1

>  <Tested System>
PIK3CA (human)

>  <IC50>
< 10000 nM

$$$$
>  <Smiles Str>
CS(=O)(=O)Nc1nc2cc(-c3ccc4ncc(C(=O)N5CCOCC5)n4c3)ccc2o1

>  <Tested System>
PIK3CA (human)

>  <IC50>
> 10000 nM

$$$$
>  <Smiles Str>
Nc1nc2cc(-c3ccc4ncc(N5CCN(C(=O)[C@@H]6CCCN6)CC5)nc4c3)ccc2o1

>  <Tested System>
PIK3CA (human)

>  <IC50>
< 100 nM

$$$$
>  <Smiles Str>
CC(=O)Nc1nc2ccc(-c3nn(Cc4cc5cccc(C)c5c(=O)n4-c4ccccc4C)c4ncnc(N)c34)cc2[nH]1

>  <Tested System>
PIK3CA (human)

>  <IC50>
< 10000 nM

$$$$

###

pIC50: −log10 of the molar value.
What follows is literature data on pIC50 for PIK3CA (human) (UniProt P42336).
Quantity Kind: pIC50

>  <Compound>
Cn1cc(/C=C2\Oc3cc(O)cc(O)c3C2=O)c2c(N3CC4CCC(C3)O4)ccnc21

>  <Readout Qualifier>
=

>  <Data Value>
7.96

$$$$
>  <Compound>
CC(O)c1cccc(-c2nc3c(N4CCOC[C@@H]4C)nc(N4CCOCC4)nc3[nH]2)c1 (some centres unmarked)

>  <Readout Qualifier>
=

>  <Data Value>
5.54

$$$$
>  <Compound>
CCn1ccc2c(N3CCOCC3)nc(-c3ccc(NC(=O)Nc4ccc(C(=O)OC)cc4)cc3)nc21

>  <Readout Qualifier>
=

>  <Data Value>
6.78

$$$$
>  <Compound>
C[C@@H](O)C(=O)N1CCC(n2nnc3cnc4ccc(-c5cnc(N)c(C(F)(F)F)c5)nc4c32)CC1

>  <Readout Qualifier>
>

>  <Data Value>
7.00

$$$$
>  <Compound>
CN1CCN(CCn2cnc3ccc(-c4ccc5oc(N)nc5c4)cc3c2=O)CC1

>  <Readout Qualifier>
>

>  <Data Value>
5.00

$$$$
>  <Compound>
Cn1ncc2c(Nc3ccc(C(N)=O)cc3)nc(Nc3ccc(NC(=O)NC4CC4)cc3)nc21

>  <Readout Qualifier>
=

>  <Data Value>
7.57

$$$$
